molecular target: PLK1 (Homo sapiens); construct: endogenous in cells; host or cells: HeLa cells stably expressing LgBit, with CRISPR/Cas9 knock-in of HiBit at the PLK1 C-terminus; assay: Luciferase (HiBit) assay of PLK1 degradation in HeLa LgBit (Plk1-HiBit KI) cells; format: cell-based; conditions: released after thymidine block, compound 300 nM, luminescence at 9 hours, DMSO-only control
Sequence (P53350 whole entry): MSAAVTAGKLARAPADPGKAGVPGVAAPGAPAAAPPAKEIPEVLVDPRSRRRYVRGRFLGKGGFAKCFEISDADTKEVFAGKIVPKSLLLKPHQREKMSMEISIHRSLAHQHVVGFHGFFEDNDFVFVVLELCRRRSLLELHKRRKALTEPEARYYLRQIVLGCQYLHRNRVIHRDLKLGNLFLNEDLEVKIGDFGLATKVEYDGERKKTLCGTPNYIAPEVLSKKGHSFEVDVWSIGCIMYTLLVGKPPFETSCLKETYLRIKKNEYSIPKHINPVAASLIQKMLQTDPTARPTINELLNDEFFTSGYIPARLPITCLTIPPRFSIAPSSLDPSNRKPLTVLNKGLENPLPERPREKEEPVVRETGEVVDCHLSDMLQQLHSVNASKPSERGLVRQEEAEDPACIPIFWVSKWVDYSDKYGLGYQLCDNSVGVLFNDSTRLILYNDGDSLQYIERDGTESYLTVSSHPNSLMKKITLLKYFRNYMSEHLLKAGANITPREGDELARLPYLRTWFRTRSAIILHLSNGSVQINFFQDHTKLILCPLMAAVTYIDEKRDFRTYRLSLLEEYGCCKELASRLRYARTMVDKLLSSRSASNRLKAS
Readout Label: PLK1 (luminescence value)

[[record]]
compound = "COc1cc(C(=O)NCCOCCOCCNc2cccc3c2C(=O)N(C2CCC(=O)NC2=O)C3=O)ccc1Nc1ncc2c(n1)N(C1CCCCC1)[C@H](C)C(=O)N2C (stereo partly drawn)"
measured_result = 0.207


(1) CC[C@@H]1C(=O)N(C)c2cnc(Nc3ccc(C(=O)NCCOCCOCCOCCOCCNc4cccc5c4C(=O)N(C4CCC(=O)NC4=O)C5=O)cc3OC)nc2N1C1CCCC1 (stereo partly drawn)
(2) CC[C@@H]1C(=O)N(C)c2cnc(Nc3ccc(C(=O)N[C@H]4CC[C@H](N5CCN(CCOCCNc6cccc7c6C(=O)N(C6CCC(=O)NC6=O)C7=O)CC5)CC4)cc3OC)nc2N1C1CCCC1 (stereo partly drawn)
Between 1 and 2 , which one shows the larger PLK1 (luminescence value) value? Please reply using the label of the selected record.
2
